The entries below are paired with their reported log10(CL free).
system: Rattus norvegicus; assay: Unbound clearance in Sprague-Dawley rat at 1 mg/kg, po and 0.5 mg/kg, iv; format: ADME, organism-based; conditions: in vivo
attributeMeasured: log10(CL free) (log10 of the value in mL/min/kg)

In [3]: df
Out[3]:
                                    compound  experimentaltarget  numericresult
 0  CNc1nc(Nc2cnn(C3CCN(C4COC4)CC3)c2C)ncc1C(F)(F)F   Rattus norvegicus           1.65
 1  CNc1nc(Nc2cnn3c2C(C)OCC3)ncc1C(F)(F)F (configuration not stated)   Rattus norvegicus           2.02
 2   CNc1nc(Nc2cnn(C3CCOCC3)c2C)ncc1C(F)(F)F   Rattus norvegicus           2.37
 3  CNc1nc(Nc2cnn(C(C)(C)C#N)c2C)ncc1C(F)(F)F   Rattus norvegicus           2.63
 4  CNC(=O)C(C)(C)n1cc(Nc2ncc(C(F)(F)F)c(NC)n2)c(C)n1   Rattus norvegicus           1.43
 5  CNc1nc(Nc2cn([C@H]3CCN(C4COC4)C[C@H]3F)nc2C)ncc1C(F)(F)F (relative stereo)   Rattus norvegicus           1.62
 6  CNc1nc(Nc2cnn([C@H]3CCN(C4COC4)C[C@@H]3F)c2Cl)ncc1C(F)(F)F (relative stereo)   Rattus norvegicus           2.42
 7  CNc1nc(Nc2cn(C3(C#N)CC3)nc2C)ncc1C(F)(F)F   Rattus norvegicus           2.33
 8     CNc1nc(Nc2cnn(C3COC3)c2C)ncc1C(F)(F)F   Rattus norvegicus           2.06
 9  CCNc1nc(Nc2cc(C(C)(C)C#N)nn2C)ncc1C(F)(F)F   Rattus norvegicus           2.30
10  CNc1nc(Nc2cn(C(C)(C)C#N)nc2C)ncc1C(F)(F)F   Rattus norvegicus           2.32
11  CNc1nc(Nc2cnn(C3(C#N)CC3)c2Cl)ncc1C(F)(F)F   Rattus norvegicus           2.63
